B1: LINE1-full (parent)
chain: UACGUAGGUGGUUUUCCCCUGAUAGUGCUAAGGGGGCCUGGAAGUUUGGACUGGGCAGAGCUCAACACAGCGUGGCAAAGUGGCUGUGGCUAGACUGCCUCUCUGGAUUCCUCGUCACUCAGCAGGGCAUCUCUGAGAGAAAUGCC

variants of: B1; assay: self-cleavage, relative activity (ratio to wild type); higher = more cleavage; in vitro, sequencing; the parent is a self-cleaving ribozyme
Give measured self-cleavage for each item. Keep answers brief.
Output: the number by itself.

Name the recorded self-cleavage for G105A U134C .
1.44

Follow-up item: A57U A67C
0.07

Follow-up item: U9C C19A
1.55

Follow-up item: A138G A142G
1.39

Follow-up item: U52A C131U
1.46

Follow-up item: G41C U46A
0.25

Follow-up item: U45C U85C
0.17

Follow-up item: A24G U96A
0.11

Follow-up item: G127A A136U
1.65

Follow-up item: A42G U112C
1.54

Follow-up item: U9C G86A
0.16

Follow-up item: A31G A138U
1.05

Follow-up item: A42G A78U
1.66

Follow-up item: U15C U102G
0.8

Follow-up item: U39A A129G
1.27

Follow-up item: U47C G89U
0.04

Follow-up item: G34A U102C
1.43

Follow-up item: C113A A121G
1.25

Follow-up item: U5A A57G
0.83

Follow-up item: U29C G34A
0.73

Follow-up item: C16U U96A
0.03

Follow-up item: U5A U9C
0.81

Follow-up item: A42U U134A
1.09

Follow-up item: A24U U102C
1.09

Follow-up item: A30U A65U
0.19

Follow-up item: U45G A117G
0

Follow-up item: G86A A140G
0.03

Follow-up item: A121G A140U
1.45

Follow-up item: G40A U85C
0.04

Follow-up item: U109A U115A
1.47

Follow-up item: G40A C145U
0.64

Follow-up item: A30G C90U
0.07

Follow-up item: G55U U102C
0.06

Follow-up item: U47C U91A
0.97

Follow-up item: U52A A77G
2.06

Follow-up item: A6U A78G
0.77

Follow-up item: U100C C146U
1.71

Follow-up item: A31C U109C
2.01

Follow-up item: A22G A138G
1.25

Follow-up item: U52C C98G
0.17

Follow-up item: U45C U132G
1.33

Follow-up item: U9C U112G
2.63

Follow-up item: U102C C131A
1.48

Follow-up item: U102C C110U
1.78

Follow-up item: G72A U87C
0.25

Follow-up item: A30G A65U
0.39
